- measurement-notes: observed amide hydrogen exchange rate constant kobs (stretched exponential fit, FD-normalized) (s^-1); higher = faster H/D exchange (less protection)
- condition-label: pH 3 (pH read); temperature: 20 °C; D2O: 88%
measured-endpoint: observed amide hydrogen exchange rate constant kobs

substance: VDFNVPMK
recorded-number: 0.000994
//
substance: ANTFVAELK
recorded-number: 0.00102
//
substance: TLTIVDTGIGMTK
recorded-number: 0.000986
//
substance: TITLEVEPSDTIENVK
recorded-number: 0.001
//
substance: VLNTNIDGR
recorded-number: 0.00162
//
substance: REEEEFNTGPLSVLTQSVK
recorded-number: 0.00112
//
substance: GVVPLAGTNGETTTQGLDGLSER
recorded-number: 0.00156
//
substance: VVLIGGKPDR
recorded-number: 0.00162
//
substance: YPIEHGIITNWDDMEK
recorded-number: 0.00172
//
substance: ALLFIPR
recorded-number: 0.000533
//
substance: VELFFK
recorded-number: 0.000868
//
substance: TLVDIAK
recorded-number: 0.000674
//
substance: SVVLMSHLGRPDGVPMPDK
recorded-number: 0.00138
//
substance: AAQEEYVK
recorded-number: 0.00112
//
substance: AVCMLSNTTAIAEAWAR
recorded-number: 0.000746
//
substance: AILVDLEPGTMDSVR
recorded-number: 0.0012
//
substance: VYALPEDLVEVNPK
recorded-number: 0.0011
//
substance: NIEDVIAQGIGK
recorded-number: 0.00103
//
substance: FVADGIFK
recorded-number: 0.00103
//
substance: SVPTSTVFYPSDGVATEK
recorded-number: 0.000911
//
substance: MVLVGDVK
recorded-number: 0.000602
//
substance: TGTAEMSSILEER
recorded-number: 0.00127
//
substance: LGGSLADSYLDEGFLLDK
recorded-number: 0.00175
//
substance: DYFGAHTYELLAK
recorded-number: 0.00186
//
substance: LFFLQVK
recorded-number: 0.00042
//
substance: LVQGSILK
recorded-number: 0.000721
//
substance: YTPSGQAGAAASESLFVSNHAY
recorded-number: 0.00149
//
substance: GFSTWLK
recorded-number: 0.000875
//
substance: NIGVDNPAAK
recorded-number: 0.0014
//
substance: QDFVQHFSQIVR
recorded-number: 0.00117
//
substance: TLFPLIEAK
recorded-number: 0.000566
//
substance: VHIEIGPDGR
recorded-number: 0.00136
//
substance: EGMNIVEAMER
recorded-number: 0.00123
//
substance: EIAEAYLGK
recorded-number: 0.00148
//
substance: IEVIEIMTDR
recorded-number: 0.00104
//
substance: LFIGGLSFETTDDSLREHFEK
recorded-number: 0.00239
//
substance: QTVAVGVIK
recorded-number: 0.000426
//
substance: QEMQEVQSSR
recorded-number: 0.00166
//
substance: YPALHKPENQDIDWGALEGETR
recorded-number: 0.0022
//
substance: LLIHQSLAGGIIGVK
recorded-number: 0.000892
//
substance: EAEAAIYHLQLFEELRR
recorded-number: 0.00102
